Test system: HCT-116
Test: Cell cycle arrest in human HCT116 cells released from G2 block assessed as accumulation at sub G1 phase at 15 uM after 24 hrs by flow cytometry
Type: functional
# strict inequality: Activity < 10% yields Y, everything else yields N

Sample answers from the record:
Query: Quick check: does `COc1ccc2c(c1)NC(=O)/C2=C/c1ccc(OC)c(O)c1` have Activity under 10%?
Reply: N

Query: Dear reviewer, please state whether `O=C1Nc2cc(Cl)ccc2/C1=C\c1cccc(C(F)(F)F)c1` has Activity strictly beneath 10%.
Reply: N

Query: Consider `COc1cc(/C=C2/C(=O)Nc3ccccc32)cc(OC)c1OC` . Does its Activity lie strictly below 10%?
Reply: Y

Query: Dear reviewer, please state whether `O=C1Nc2cc(F)ccc2/C1=C\c1cccc(C(F)(F)F)c1` has Activity strictly beneath 10%.
Reply: Y

Please look at the following compound next.
Query: Please let me know if `O=C1Nc2ccccc2/C1=C\c1cccc(Oc2ccccc2)c1` shows Activity below 10%.
Reply: Y
